The reported measurements were obtained from PubChem BioAssay.

measurement protocol: sensitizers of A549 cells to miR-34 induction, primary screen, imaging, A549 dox-inducible miR-34, nuclei and caspase counts (AID 1347080)
details: A549 miR-34 inducible, Hoechst nuclei count, 48 h; measured here: total cells with miR-34 induction; stronger effect = lower value
# key: entry, value: cell count
Lab note: jot the number down without any unit.

Query: Sample COc1cc2c(cc1OC)[C@@]13CCN4CC5=CCOC6CC(=O)N2C1C6C5CC43 (some centres undefined) — what was its cell count?
Response: 8280

Query: Sample C[C@H](Cc1ccc2c(c1)OC(C(=O)O)(C(=O)O)O2)NC[C@H](O)c1cccc(Cl)c1 — what was its cell count?
Response: 10500

Query: Sample CCN1C[C@]2(COC)CC[C@H](OC)[C@@]34C1[C@]1(OCO[C@@]15C[C@H](OC)[C@H]1C[C@@H]3[C@@H]5[C@H]1OC)[C@@H](O)[C@H]24 — what was its cell count?
Response: 8580

Query: Sample C[C@](O)(CS(=O)(=O)c1ccc(F)cc1)C(=O)Nc1ccc(C#N)c(C(F)(F)F)c1 — what was its cell count?
Response: 7480

Query: Sample CC(C)C[C@@H](CN)CC(=O)O — what was its cell count?
Response: 12300

Query: Sample CN(C)CCc1ccc(O)cc1 — what was its cell count?
Response: 9070

Query: Sample COP(=S)(OC)Oc1ccc(SC)c(C)c1 — what was its cell count?
Response: 9260

Query: Sample CCCN(CCC)[C@@H]1CCc2cccc(O)c2C1 — what was its cell count?
Response: 10200

Query: Sample CC1OC(O[C@H]2C[C@@H](O)[C@]3(CO)[C@H]4[C@H](O)C[C@]5(C)[C@@H](C6=CC(=O)OC6)CC[C@]5(O)[C@@H]4CC[C@]3(O)C2)C(O)C(O)C1O (some centres undefined) — what was its cell count?
Response: 286

Query: Sample CN(N=O)c1cc(O)ccc1O — what was its cell count?
Response: 9960

====

measurement protocol: circadian clock period modulators, cell-based, LOPAC library, luminescence reporter (AID 2774);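 also: values are relative to mean of DMSO wells on each plate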
details: circadian reporter cells, at 7 µM, actives lie on both sides
Calls of active or inactive are those of the source. The rule behind the calls is not given here.
readout kind: period change

Query: Sample NC(N)=NOCC[C@H](N)C(=O)O — what was its period change?
Response: -0.04 h (inactive)

Query: Sample COc1ccc2c(c1OC)C(=O)O[C@H]2[C@@H]1c2cc3c(cc2CCN1C)OCO3 — what was its period change?
Response: -0.14 h (inactive)

Query: Sample Cc1nc(-c2ccc(-c3ccc(C(=O)N4CCc5cc6c(cc54)C4(CCN(C)CC4)CO6)cc3)c(C)c2)no1 — what was its period change?
Response: 0.165 h (inactive)

Query: Sample Cc1c(C(=O)c2cccc3ccccc23)c2cccc3c2n1[C@H](CN1CCOCC1)CO3 — what was its period change?
Response: -0.065 h (inactive)

Query: Sample O=C1NCN(c2ccccc2)C12CCN(CC1COc3ccccc3O1)CC2 (stereo unspecified) — what was its period change?
Response: 0.005 h (inactive)

---
Query: Sample N[C@H](CCCCCP(=O)(O)O)C(=O)O — what was its period change?
Response: -0.025 h (inactive)

====

# key: entry, value: activity remaining
System: Aerobactin synthetase IucA (Klebsiella pneumoniae hvKP1)
measurement protocol: Biochemical IucA enzyme inhibition primary screen of the Spectrum library (AID 1346200);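 also: 100% = wells without compound and 0% = wells lacking enzyme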
details: malachite green pyrophosphate, A620, at 8 µM, stronger effect = lower value
Enter your answer as a number in %; do not include the unit.

Query: Sample O=c1cccc2n1C[C@H]1CNCC2C1 — what was its activity remaining?
Response: 107

Query: Sample COc1ccccc1OCC(O)COC(N)=O (stereo unspecified) — what was its activity remaining?
Response: 108

Query: Sample COC(=O)C1=CO[C@@H](O[C@@H]2O[C@H](CO)[C@@H](O)[C@H](O)[C@H]2O)[C@H]2C1C(=O)C[C@@H]2C (stereo partly specified) — what was its activity remaining?
Response: 112

Query: Sample O=C(O)CCCOc1ccc(Cl)cc1Cl — what was its activity remaining?
Response: 103

Query: Sample CC[C@H](C)C(=O)O[C@H]1CCC=C2C=C[C@H](C)C(CCC3C[C@@H](O)CC(=O)O3)[C@H]21 (stereo partly specified) — what was its activity remaining?
Response: 102

---
Query: Sample COC(=O)C1=CO[C@@H](O[C@@H]2O[C@H](CO)[C@@H](O)[C@H](O)[C@H]2O)[C@@H]2[C@@H](C)[C@@H](O)C[C@H]12 — what was its activity remaining?
Response: 101

Query: Sample CC(=O)Oc1ccc(O)cc1 — what was its activity remaining?
Response: 122

Query: Sample CC(CCC(=O)O)[C@H]1CCC2C3CC[C@@H]4C[C@H](O)CC[C@]4(C)C3C[C@H](O)[C@@]21C (stereo partly specified) — what was its activity remaining?
Response: 116

Query: Sample CC[N+](CC)(CC)CCOc1cccc(OCC[N+](CC)(CC)CC)c1OCC[N+](CC)(CC)CC — what was its activity remaining?
Response: 96.2

Query: Sample COC(=O)C[C@@H]1C2(C)C(=O)[C@@H](CC3=C4CC(=O)O[C@@H](c5ccoc5)[C@]4(C)CCC32)[C@H](OC(C)=O)C1(C)C (stereo partly specified) — what was its activity remaining?
Response: 112

Query: Sample Cc1cc(O)cc(=O)o1 — what was its activity remaining?
Response: 116

Query: Sample O=C(O)CN(CC(=O)O)Cc1cc2c(-c3ccccc3C(=O)O)c3cc(CN(CC(=O)O)CC(=O)O)c(=O)cc-3oc2cc1O — what was its activity remaining?
Response: 113

Query: Sample CC(CN(C)C)CN1c2ccccc2Sc2ccccc21 (stereo unspecified) — what was its activity remaining?
Response: 101
